Tested on: U-2932
Assay: growth inhibition by drug alone (1 - RLU/untreated control) (fraction); higher = stronger inhibition
Settings: 10 nM; time (day): 4; 177Lu-lilotomab satetraxetan 0 ug/ml
Where a name gives a salt, the structure may show the parent alone.
readout: growth inhibition by drug alone
Give the value as a plain number.

Looking up CCN[C@H]1C[C@H](C)S(=O)(=O)c2sc(S(N)(=O)=O)cc21 [Dorzolamide HCL] , I found its growth inhibition by drug alone recorded as -0.0488

Looking up C=CCn1c(=O)c2cnc(Nc3ccc(N4CCN(C)CC4)cc3)nc2n1-c1cccc(C(C)(C)O)n1 , I found its growth inhibition by drug alone recorded as 0.069

----------
System: RIVA
Assay: growth inhibition by drug plus 177Lu-lilotomab satetraxetan (1 - RLU/untreated control) (fraction); higher = stronger inhibition
Settings: 10 nM; time (day): 3; 177Lu-lilotomab satetraxetan 0.5 ug/ml
Measured growth inhibition by drug plus 177Lu-lilotomab satetraxetan of individual entries
Give the value as a plain number.

Some molecules with recorded growth inhibition by drug plus 177Lu-lilotomab satetraxetan:
>  <molecule>
Nc1nc(Cl)nc2c1ncn2[C@@H]1O[C@H](CO)[C@@H](O)[C@@H]1F [Clofarabine]

>  <measured_number>
0.51

$$$$
>  <molecule>
O=C(NCCCNc1nc(Nc2cccc(NC(=O)N3CCCC3)c2)ncc1I)c1cccs1

>  <measured_number>
0.795

$$$$
>  <molecule>
CC[C@H]1OC(=O)[C@H](C)[C@@H](O[C@H]2C[C@@](C)(OC)[C@@H](O)[C@H](C)O2)[C@H](C)[C@@H](O[C@@H]2O[C@H](C)C[C@H](N(C)C)[C@H]2O)[C@](C)(O)C[C@@H](C)CN(C)[C@H](C)[C@@H](O)[C@]1(C)O [Azithromycin (Zithromax)]

>  <measured_number>
0.526

$$$$
>  <molecule>
CCOc1cc2ncc(C#N)c(Nc3ccc(F)c(Cl)c3)c2cc1NC(=O)/C=C/CN(C)C [Pelitinib (EKB-569)]

>  <measured_number>
0.334

$$$$
>  <molecule>
O=C(NOC[C@H](O)CO)c1ccc(F)c(F)c1Nc1ccc(I)cc1F

>  <measured_number>
0.487

$$$$
>  <molecule>
COc1cc([C@@H]2c3cc4c(cc3[C@@H](O[C@@H]3O[C@@H]5CO[C@@H](C)O[C@H]5[C@H](O)[C@H]3O)[C@H]3COC(=O)[C@H]23)OCO4)cc(OC)c1O [Etoposide (VP-16)]

>  <measured_number>
0.345

$$$$
>  <molecule>
CC(C)C[C@H](NC(=O)[C@@H](O)[C@H](N)Cc1ccccc1)C(=O)O [Ubenimex (Bestatin)]

>  <measured_number>
0.428

$$$$

Please find the next molecule below.
Looking up O=C(/C=C/c1cccnc1)NCCCCC1CCN(C(=O)c2ccccc2)CC1 , I found its growth inhibition by drug plus 177Lu-lilotomab satetraxetan recorded as 0.991

----------
Test system: U-2932
Experiment: growth inhibition by drug alone (1 - RLU/untreated control) (fraction); higher = stronger inhibition
Conditions: 1000 nM; time (day): 4; 177Lu-lilotomab satetraxetan 0 ug/ml
readout: growth inhibition by drug alone
Give the value as a plain number.

Some compounds with recorded growth inhibition by drug alone:
>  <compound>
Cc1cc(Nc2cc(N3CCN(C)CC3)nc(/C=C/c3ccccc3)n2)n[nH]1

>  <growth inhibition by drug alone>
0.0113

$$$$
>  <compound>
O=C(/C=C/c1cccc(S(=O)(=O)Nc2ccccc2)c1)NO [Belinostat (PXD101)]

>  <growth inhibition by drug alone>
0.964

$$$$
>  <compound>
CC(C)Oc1cc(Nc2nc(N[C@@H](C)c3ccc(F)cn3)ncc2Cl)n[nH]1

>  <growth inhibition by drug alone>
0.0436

$$$$
>  <compound>
Nc1ccn([C@@H]2O[C@H](CO)[C@@H](O)[C@@H]2O)c(=O)n1 [Cytarabine]

>  <growth inhibition by drug alone>
0.568

$$$$
>  <compound>
O=C(CCCCCCC(=O)Nc1ccccc1)NO [Vorinostat (SAHA)]

>  <growth inhibition by drug alone>
0.762

$$$$
>  <compound>
O=C(Nc1cccnc1)N1CCC(Cc2cccc(Oc3ccc(C(F)(F)F)cn3)c2)CC1

>  <growth inhibition by drug alone>
0.796

$$$$
>  <compound>
NC(=O)Nc1sc(-c2ccc(F)cc2)cc1C(N)=O

>  <growth inhibition by drug alone>
0.229

$$$$
>  <compound>
Cc1nc(N)sc1-c1ccnc(Nc2ccc(N3CCOCC3)cc2)n1

>  <growth inhibition by drug alone>
0.00717

$$$$

Looking up Cc1cc(O)c2c(c1)C(=O)c1cccc(O)c1C2=O [Chrysophanic acid (Chrysophanol)] , I found its growth inhibition by drug alone recorded as -0.0522

Looking up CC(C)C[C@@H](C(=O)N[C@H](C(=O)OC1CCCC1)c1ccccc1)[C@H](O)C(=O)NO [Tosedostat (CHR2797)] , I found its growth inhibition by drug alone recorded as -0.112

Looking up CCOc1cc2ncc(C#N)c(Nc3ccc(F)c(Cl)c3)c2cc1NC(=O)/C=C/CN(C)C [Pelitinib (EKB-569)] , I found its growth inhibition by drug alone recorded as 0.204

Looking up c1ccc2c(CCNc3ccc(Nc4ccncc4)cc3)c[nH]c2c1 , I found its growth inhibition by drug alone recorded as 0.114

Source listed as the supplement of paper PMC6897291.
